Dear all, I have gathered published pKi values for Carbonic anhydrase 1 (Homo sapiens); the list follows.
Quick note: pKi values are minus log10 of concentrations in mol/L.

# return recorded pKi for entry `COc1ccc(NS(N)(=O)=O)cc1`
7.85

# return recorded pKi for entry `O=C(NCc1ccccc1)Nc1ccc2c(c1)B(O)OC2`
6.25

# return recorded pKi for entry `CC(=O)OC[C@H]1O[C@@H]([Se]c2ccc(NC(=S)Nc3ccc(S(N)(=O)=O)cc3)cc2)[C@H](OC(C)=O)[C@@H](OC(C)=O)[C@H]1OC(C)=O`
7.32

# return recorded pKi for entry `C[C@H](CCC(=O)Nc1ccc(S(N)(=O)=O)cc1Br)[C@H]1CC[C@H]2[C@@H]3[C@@H](O)C[C@@H]4C[C@H](O)CC[C@]4(C)[C@H]3CC[C@]12C`
7.04

# return recorded pKi for entry `NS(=O)(=O)c1ccc(CCNC(=O)CN(CCN(CCN(CC(=O)O)CC(=O)O)CC(=O)O)CC(=O)O)cc1`
6.54

# return recorded pKi for entry `NS(=O)(=O)c1ccc(Nc2nc(Cl)nc(NCCO)n2)cc1`
5.96

# return recorded pKi for entry `NCCCC(=O)Oc1ccc2nc(S(N)(=O)=O)sc2c1`
7.82

# return recorded pKi for entry `Cc1cc(-c2ccccc2)cc(C)[n+]1CC(=O)Nc1ccc(S(=O)(=O)/N=c2/sc(S(N)(=O)=O)nn2C)cc1`
7.96

# return recorded pKi for entry `CN(CC(=O)Nc1ccc(S(N)(=O)=O)cc1Br)C(=N)N`
6.28

# return recorded pKi for entry `CCOc1ccc(S(=O)(=O)N2CCN(C)CC2)cc1-c1nnc2c(n1)c(C)nn2-c1ccc(Cl)cc1`
6.07

# return recorded pKi for entry `NCCNCCN`
3.38

# return recorded pKi for entry `NS(=O)(=O)c1ccc(NC(=O)CN(CCOCCOCCN(CC(=O)O)CC(=O)Nc2ccc(S(N)(=O)=O)cc2F)CC(=O)O)c(F)c1`
6.81

# return recorded pKi for entry `CCCN(CCC)S(=O)(=O)N(CCC)CCC`
5.03

# return recorded pKi for entry `COC(=O)c1ccc(-c2ccc(S(N)(=O)=O)cc2)cc1`
7.11

# return recorded pKi for entry `NS(=O)(=O)c1nnc(NC(=O)c2ccc(Cl)c(S(N)(=O)=O)c2)s1`
7.89

# return recorded pKi for entry `NS(=O)(=O)c1nc2ccc(NC(=O)CN(CCN(CCN(CC(=O)O)CC(=O)Nc3ccc4nc(S(N)(=O)=O)sc4c3)CC(=O)O)CC(=O)O)cc2s1`
7.60

# return recorded pKi for entry `CC1=NNC(=O)/C1=N/Nc1ccc(S(N)(=O)=O)cc1`
7.27

# return recorded pKi for entry `Cc1cc(C)[n+](Cc2ccc(S(N)(=O)=O)cc2)c(C)c1`
5.15

# return recorded pKi for entry `NS(=O)(=O)c1ccc(NC(=O)CN(CCOCCOCCN(CC(=O)O)CC(=O)O)CC(=O)O)c(Br)c1`
7.11

# return recorded pKi for entry `CSCCC(=O)NCc1ccc(S(N)(=O)=O)cc1`
6.24

# return recorded pKi for entry `C/C(=N\Nc1nc(-c2ccc(Cl)cc2)cs1)c1nnn(-c2ccc(C(=O)O)cc2)c1C`
6.26

# return recorded pKi for entry `CCc1cc(-c2ccccc2)cc(CC)[n+]1CC(=O)Nc1ccc(S(=O)(=O)Nc2cccc(S(N)(=O)=O)c2)cc1`
7.37

# return recorded pKi for entry `CC(C)C[C@H](NC(=O)c1ccc(Cl)c(S(N)(=O)=O)c1)C(=O)NCC(=O)O`
7.41

# return recorded pKi for entry `CC(=O)OC[C@H]1O[C@@H]([Se]c2ccc(S(N)(=O)=O)cc2)[C@H](OC(C)=O)[C@@H](OC(C)=O)[C@H]1OC(C)=O`
7.02

# return recorded pKi for entry `O=C(N/N=C/c1ccccc1[N+](=O)[O-])Nc1n[nH]c(=S)s1`
3.65

# return recorded pKi for entry `COc1ccc(S(=O)(=O)N(CC(=O)NO)OC(C)C)cc1`
5.39

# return recorded pKi for entry `NS(=O)(=O)c1ccc(C(=O)NCCCC(=O)O)cc1`
6.38

# return recorded pKi for entry `C[C@H](CCC(=O)OCCOc1ccc2nc(S(N)(=O)=O)sc2c1)[C@H]1CC[C@H]2[C@@H]3CC[C@@H]4C[C@H](O)CC[C@]4(C)[C@H]3C[C@H](O)[C@]12C`
7.43
